Value source: paper PMC12416549

Target: T1, TNFR1 (Homo sapiens, UniProt P19438)
T1 chain: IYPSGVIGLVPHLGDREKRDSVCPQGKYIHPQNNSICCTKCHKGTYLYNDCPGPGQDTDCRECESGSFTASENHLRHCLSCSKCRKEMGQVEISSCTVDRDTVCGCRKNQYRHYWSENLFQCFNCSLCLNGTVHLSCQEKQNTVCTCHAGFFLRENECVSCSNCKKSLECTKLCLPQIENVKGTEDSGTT
Experiment: yeast display SC50
measurement.type: apparent Kd (screen) (nM)

Record excerpt, results attached:
{"binder": "E7T (designed binder) SMEEEVTKAAKEYEKKKKEAIEKHLEKLKAKDKEAAERFLKELEEAAKEYAKDEAKTMSEEEAKRRAKKYKEKVLLSELSEEEQKEIKEAEEKLVRTILKYVEEAAK", "unit.symbol": "nM", "apparent Kd (screen)": 2.73}
{"binder": "A51P (designed binder) SMEEEVEKAAKEYEKKKKEAIEKHLEKLKAKDKEAAERFLKELEEAAKEYPKDEAKTMSEEEAKRRAKKYKEKVLLSELSEEEQKEIKEAEEKLVRTILKYVEEAAK", "unit.symbol": "nM", "apparent Kd (screen)": 6.43}

[I] I87G (designed binder) SMEEEVEKAAKEYEKKKKEAIEKHLEKLKAKDKEAAERFLKELEEAAKEYAKDEAKTMSEEEAKRRAKKYKEKVLLSELSEEEQKEGKEAEEKLVRTILKYVEEAAK
[II] E91R (designed binder) SMEEEVEKAAKEYEKKKKEAIEKHLEKLKAKDKEAAERFLKELEEAAKEYAKDEAKTMSEEEAKRRAKKYKEKVLLSELSEEEQKEIKEAREKLVRTILKYVEEAAK
### Prompt Decide: I or II , by lowest recorded apparent Kd (screen). Please identify the chosen entry by its label.
### Response II
(II: 6.43 nM, I: 13.8 nM)
